biological target: Aurora kinase A (Homo sapiens); assay: Inhibition of His-tagged human Aurora A kinase ([…] residues) expressed in Escherichia coli BL21 (DE3) Rosetta cells using biotinylated STK2 substrate incubated for 30 mins by HTRF assay
Sequence (O14965 whole entry): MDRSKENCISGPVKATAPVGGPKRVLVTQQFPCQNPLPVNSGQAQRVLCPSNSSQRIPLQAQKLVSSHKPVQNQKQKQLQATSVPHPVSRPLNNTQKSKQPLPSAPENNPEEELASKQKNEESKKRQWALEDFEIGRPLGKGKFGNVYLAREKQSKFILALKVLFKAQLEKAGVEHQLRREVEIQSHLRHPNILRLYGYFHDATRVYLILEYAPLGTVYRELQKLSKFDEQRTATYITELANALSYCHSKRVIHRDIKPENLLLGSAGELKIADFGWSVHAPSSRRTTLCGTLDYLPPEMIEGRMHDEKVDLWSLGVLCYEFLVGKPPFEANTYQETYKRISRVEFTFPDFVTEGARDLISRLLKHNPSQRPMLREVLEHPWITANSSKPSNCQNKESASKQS
Consider the following compounds; for each one, report its IC50.

Input line: Using the record for O=c1[nH]c2ccccc2n1-c1nc2ccccc2[nH]1 , report its IC50.
Output line: 6.5 to 7 µM

Input line: Using the record for CCc1ccc(/N=C2\S/C(=C\c3ccncc3)C(=O)N2CC2CCCCC2)cc1 , report its IC50.
Output line: > 200 µM

Input line: Using the record for CCc1ccc(/N=C2/SC3(CC3c3ccnc(N)c3)C(=O)N2C)cc1 (racemic) , report its IC50.
Output line: > 200 µM

Input line: Using the record for CNC(=O)c1ccc2c(c1)[nH]c(=O)n2-c1nc2ccccc2[nH]1 , report its IC50.
Output line: > 50 µM

Input line: Using the record for O=c1[nH]c2cc(Cl)ccc2n1-c1nc2ccccc2[nH]1 , report its IC50.
Output line: > 200 µM

Input line: Using the record for O=c1[nH]c2ccccc2n1-c1nc2cc(C(F)(F)F)ccc2[nH]1 , report its IC50.
Output line: > 70 µM
